test system: Monoclonal antibody (mAb); assay: Binding affinity against human monoclonal antibody (mAb)-1B3
Reported IC50 ratio values are given for each entry in this list.

Could you tell me which IC50 ratio is on file for CC(=O)O[C@H]1[C@H]2O[C@]23[C@@H]2CC[C@@H]4C[C@@H](O)CC[C@]4(C)[C@H]2CC[C@]3(C)[C@H]1c1ccc(=O)oc1 ?
98000

====

test system: Monoclonal antibody (mAb); assay: Binding affinity against human monoclonal antibody (mAb)-7F2
metric: IC50 ratio

Sample CO[C@H]1C(O)[C@H](O[C@H]2CC[C@@]3(C)[C@H](CC[C@@H]4[C@@H]3CC[C@]3(C)[C@@H](C5=CC(=O)OC5)CC[C@]43O)C2)O[C@@H](C)[C@@H]1O[C@@H]1O[C@H](CO[C@@H]2O[C@H](CO)[C@@H](O)[C@H](O)[C@H]2O)[C@@H](O)[C@H](O)[C@H]1O (stereo not given in full) — what was its IC50 ratio?
8.6

GET /values?readout=IC50 ratio&item= CC(=O)O[C@]1(C(C)=O)CC[C@H]2[C@@H]3C=C(Cl)C4=CC(=O)CC[C@]4(C)[C@H]3CC[C@@]21C
No inhibition

Fill in: IC50 ratio of C[C@]12CCC(=O)C=C1CC[C@@H]1[C@@H]2C(=O)C[C@@]2(C)[C@H]1CC[C@]2(O)C(=O)CO is ___
No inhibition

So what's the measured IC50 ratio for this one? C[C@]12CC[C@H](O)CC1CC[C@@H]1[C@@H]2CC[C@]2(C)[C@@H](C3=CC(=O)OC3)CC[C@]12O (single isomer, unassigned)
4.1
